System: UniProt Q9UPY5
Sequence (Q9UPY5 whole entry): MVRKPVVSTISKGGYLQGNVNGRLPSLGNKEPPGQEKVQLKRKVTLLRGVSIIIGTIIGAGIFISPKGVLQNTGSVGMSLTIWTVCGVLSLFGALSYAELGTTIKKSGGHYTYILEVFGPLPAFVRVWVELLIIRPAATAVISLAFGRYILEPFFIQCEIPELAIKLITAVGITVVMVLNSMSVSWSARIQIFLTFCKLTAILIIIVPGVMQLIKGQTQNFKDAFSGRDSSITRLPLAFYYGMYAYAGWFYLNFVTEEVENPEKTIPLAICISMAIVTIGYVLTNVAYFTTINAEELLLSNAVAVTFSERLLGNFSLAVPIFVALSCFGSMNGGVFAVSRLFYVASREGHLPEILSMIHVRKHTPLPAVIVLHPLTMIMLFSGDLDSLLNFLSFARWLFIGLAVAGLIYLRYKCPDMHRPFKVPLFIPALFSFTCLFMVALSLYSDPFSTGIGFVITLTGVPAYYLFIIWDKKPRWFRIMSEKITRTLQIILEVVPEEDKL
Sequence (P08195 102-630 partner): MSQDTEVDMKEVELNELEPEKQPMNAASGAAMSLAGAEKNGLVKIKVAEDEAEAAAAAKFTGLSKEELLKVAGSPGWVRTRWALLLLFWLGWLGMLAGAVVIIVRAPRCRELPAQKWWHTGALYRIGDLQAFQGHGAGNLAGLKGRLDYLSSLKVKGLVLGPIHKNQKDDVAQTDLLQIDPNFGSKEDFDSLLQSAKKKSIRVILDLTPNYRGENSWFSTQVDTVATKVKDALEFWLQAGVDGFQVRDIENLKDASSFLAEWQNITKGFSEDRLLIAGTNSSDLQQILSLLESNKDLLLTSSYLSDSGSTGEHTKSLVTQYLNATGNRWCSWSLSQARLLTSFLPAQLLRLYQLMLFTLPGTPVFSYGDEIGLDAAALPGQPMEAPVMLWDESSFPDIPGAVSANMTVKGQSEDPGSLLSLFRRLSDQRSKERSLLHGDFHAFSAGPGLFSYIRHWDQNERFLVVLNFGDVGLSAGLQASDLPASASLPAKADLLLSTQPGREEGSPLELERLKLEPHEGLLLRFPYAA
Assay details: Cystine-induced glutamate release assay
Format: cell-based
Parameters: endogenous in cells; host or cells: H4 cells
Recorded conditions: H4 cells, sodium-free HEPES buffer, 50 μM L-Cystine, 2 hours, Amplex Red glutamate readout; read-out: pIC50 Cystine-induced glutamate release assay (converted)
Kindly supply the reported IC50 values for the records listed here.

Value lookup for IC50; key = Cc1cc2c(c(Cl)n1)-c1cccnc1C(F)C(=O)N2CC(=O)Nc1ccc(C(F)(F)F)cc1 (single isomer, unassigned)
< 15.8 nM

State the recorded IC50 for this entry: CC1C(=O)N(CC(=O)Nc2ccc(C(F)F)cc2)c2cc(Cl)cc(F)c2-c2cccnc21 (single isomer, unassigned)
15.8 to 39.8 nM

Requested field: IC50. Item: O=C(CN1C(=O)Cc2ncccc2-c2c1cc(Cl)c(F)c2Cl)Nc1ccc(C(F)(F)F)cc1
100 to 501 nM

Could you share which IC50 value was measured for CC1C(=O)N(CC(=O)Nc2ccc(Cl)c(F)c2)c2cc(N3CC4(CC4)C3)nc(F)c2-c2cccnc21 (single isomer, unassigned) ?
15.8 to 39.8 nM
